Measured values drawn from ChEMBL document CHEMBL1909046 for this set.

TARGET OR TEST SYSTEM: Sodium-dependent dopamine transporter (Homo sapiens, UniProt Q01959)
Sequence (Q01959 whole entry): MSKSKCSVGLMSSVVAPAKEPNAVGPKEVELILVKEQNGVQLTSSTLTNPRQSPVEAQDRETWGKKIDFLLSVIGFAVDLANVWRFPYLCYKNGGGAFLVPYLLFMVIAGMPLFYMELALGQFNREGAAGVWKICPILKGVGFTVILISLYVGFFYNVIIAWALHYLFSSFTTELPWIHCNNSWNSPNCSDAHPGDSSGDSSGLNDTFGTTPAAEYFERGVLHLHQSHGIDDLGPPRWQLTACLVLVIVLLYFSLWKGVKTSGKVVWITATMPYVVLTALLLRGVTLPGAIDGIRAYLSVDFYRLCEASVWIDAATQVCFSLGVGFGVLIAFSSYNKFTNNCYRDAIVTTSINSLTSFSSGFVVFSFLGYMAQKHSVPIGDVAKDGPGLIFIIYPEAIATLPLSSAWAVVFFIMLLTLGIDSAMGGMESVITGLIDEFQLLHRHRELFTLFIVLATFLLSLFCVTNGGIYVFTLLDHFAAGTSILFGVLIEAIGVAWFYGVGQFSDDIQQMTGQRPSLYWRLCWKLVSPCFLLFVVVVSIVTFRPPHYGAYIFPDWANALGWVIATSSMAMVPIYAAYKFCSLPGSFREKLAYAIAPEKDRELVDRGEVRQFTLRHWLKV
PROCEDURE DETAILS: DRUGMATRIX: Dopamine Transporter radioligand binding (ligand: [125I] RTI-55)
Assay type: cell membranes, CHO-K1, Membrane
MEASUREMENT CONDITIONS: Not Active = under 50% inhibition at 10 µM; read-out: Ki
pKi values by entry
# reply with the number alone; pKi is -log10 of concentration in mol/L

Use the examples below as a reference point.
| MOLECULE | pKi |
| --- | --- |
| C[C@]12CC[C@@H]3c4ccc(O)cc4CC[C@H]3[C@@H]1CC[C@@H]2O [ESTRADIOL] | 4.93 |
| CC(C)CC(N(C)C)C1(c2ccc(Cl)cc2)CCC1 (centres undefined) [SIBUTRAMINE] | 6.30 |
| CN(C)c1ccc(C(=C2C=CC(=[N+](C)C)C=C2)c2ccc(N(C)C)cc2)cc1.[Cl-] [GENTIAN VIOLET] | 5.49 |

Please examine the following record next.
Ask: Entry CC(=O)N1CCN(c2ccc(OCC3COC(Cn4ccnc4)(c4ccc(Cl)cc4Cl)O3)cc2)CC1 (centres undefined) [KETOCONAZOLE] , system Sodium-dependent dopamine transporter (Homo sapiens, UniProt Q01959): what pKi was measured?
Result: 4.73

* * *

PROCEDURE DETAILS: DRUGMATRIX: Leukotriene, BLT (LTB4) radioligand binding (ligand: [3H]LTB4)
Assay type: cell membranes, Membrane
MEASUREMENT CONDITIONS: u-937; Not Active = under 50% inhibition at 10 µM

| MOLECULE | IC50 |
| --- | --- |
| CC(=O)OCC(=O)[C@@]1(O)CC[C@H]2[C@@H]3CCC4=CC(=O)CC[C@]4(C)[C@H]3C(=O)C[C@@]21C [CORTISONE ACETATE] | Not Active |
| CCC1=C[C@@H]2CN(C1)Cc1c([nH]c3ccccc13)[C@@](C(=O)OC)(c1cc3c(cc1OC)N(C)[C@H]1[C@@](O)(C(=O)OC)[C@H](OC(C)=O)[C@]4(CC)C=CCN5CC[C@]31[C@@H]54)C2 [VINORELBINE] | Not Active |
| NC(=O)NO [HYDROXYUREA] | Not Active |

* * *

TARGET OR TEST SYSTEM: C-C chemokine receptor type 2 (Homo sapiens, UniProt P41597); note: in other assays of this panel Not Active means under 50% inhibition at 10 µM
Sequence (P41597 whole entry): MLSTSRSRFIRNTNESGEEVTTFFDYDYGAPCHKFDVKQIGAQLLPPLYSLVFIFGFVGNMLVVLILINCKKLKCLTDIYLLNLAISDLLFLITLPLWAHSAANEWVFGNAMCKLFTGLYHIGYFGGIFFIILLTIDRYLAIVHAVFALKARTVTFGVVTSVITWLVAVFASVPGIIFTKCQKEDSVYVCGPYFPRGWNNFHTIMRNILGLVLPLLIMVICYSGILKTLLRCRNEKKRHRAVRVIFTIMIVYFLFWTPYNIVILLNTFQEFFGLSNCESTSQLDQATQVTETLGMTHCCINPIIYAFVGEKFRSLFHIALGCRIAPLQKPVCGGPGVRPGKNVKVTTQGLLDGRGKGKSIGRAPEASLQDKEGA
Type: cell membranes, CHO-K1, Membrane
MEASUREMENT CONDITIONS: read-out: IC50
PROPERTY LABEL: IC50 (µM)
The reply should contain only the number, in µM.

Ask: Tell me the measured IC50 of S=C=Nc1cccc2ccccc12 [1-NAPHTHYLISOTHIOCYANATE] , please.
Result: 6.7

* * *

TARGET OR TEST SYSTEM: Beta-2 adrenergic receptor (Homo sapiens, UniProt P07550)
Sequence (P07550 whole entry): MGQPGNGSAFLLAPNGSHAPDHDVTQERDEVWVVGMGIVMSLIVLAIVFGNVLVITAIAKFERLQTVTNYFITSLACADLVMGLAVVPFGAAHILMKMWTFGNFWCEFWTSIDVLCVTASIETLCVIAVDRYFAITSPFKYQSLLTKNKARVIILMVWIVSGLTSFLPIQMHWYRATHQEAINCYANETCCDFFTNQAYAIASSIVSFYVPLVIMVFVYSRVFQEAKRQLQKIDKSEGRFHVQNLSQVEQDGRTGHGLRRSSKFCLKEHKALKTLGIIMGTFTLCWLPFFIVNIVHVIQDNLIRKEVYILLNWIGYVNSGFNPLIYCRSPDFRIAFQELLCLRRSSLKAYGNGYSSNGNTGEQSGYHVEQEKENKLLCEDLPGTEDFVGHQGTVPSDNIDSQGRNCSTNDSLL
PROCEDURE DETAILS: DRUGMATRIX: Adrenergic beta2 radioligand binding (ligand: [3H] CGP-12177)
Type: cell membranes, Membrane
MEASUREMENT CONDITIONS: cho; Not Active = under 50% inhibition at 10 µM
PROPERTY LABEL: IC50

| COMPOUND | IC50 |
| --- | --- |
| C[C@]12CC[C@@H]3c4ccc(OC(=O)c5ccccc5)cc4CC[C@H]3[C@@H]1CC[C@@H]2O [ESTRADIOL BENZOATE] | Not Active |
| CC/C(=C(/CC)c1ccc(O)cc1)c1ccc(O)cc1 | Not Active |
| CC(C(=O)O)c1cccc(C(=O)c2ccccc2)c1 (stereo not given) | Not Active |
| Clc1ccc2c(c1)C(N1CCNCC1)=Nc1ccccc1O2 | Not Active |
| Cc1cc(=O)n(-c2ccccc2)n1C [ANTIPYRINE] | Not Active |

Ask: Tell me the measured IC50 of COc1ccccc1C(=O)N1CCC(Cc2ccccc2)CC1 , please.
Result: Not Active

Ask: Tell me the measured IC50 of CCCC(CCC)C(=O)O , please.
Result: Not Active

Ask: Tell me the measured IC50 of COc1ccc2cc([C@H](C)C(=O)O)ccc2c1 , please.
Result: Not Active

Ask: Tell me the measured IC50 of O=C1CC[C@H](N2C(=O)c3ccccc3C2=O)C(=O)N1 , please.
Result: Not Active

Ask: Tell me the measured IC50 of COC(=O)C1=C(C)NC(C)=C(C(=O)OCC(C)C)C1c1ccccc1[N+](=O)[O-] (stereo not given) , please.
Result: Not Active

* * *

TARGET OR TEST SYSTEM: Acetylcholinesterase (Homo sapiens, UniProt P22303)
Sequence (P22303 whole entry): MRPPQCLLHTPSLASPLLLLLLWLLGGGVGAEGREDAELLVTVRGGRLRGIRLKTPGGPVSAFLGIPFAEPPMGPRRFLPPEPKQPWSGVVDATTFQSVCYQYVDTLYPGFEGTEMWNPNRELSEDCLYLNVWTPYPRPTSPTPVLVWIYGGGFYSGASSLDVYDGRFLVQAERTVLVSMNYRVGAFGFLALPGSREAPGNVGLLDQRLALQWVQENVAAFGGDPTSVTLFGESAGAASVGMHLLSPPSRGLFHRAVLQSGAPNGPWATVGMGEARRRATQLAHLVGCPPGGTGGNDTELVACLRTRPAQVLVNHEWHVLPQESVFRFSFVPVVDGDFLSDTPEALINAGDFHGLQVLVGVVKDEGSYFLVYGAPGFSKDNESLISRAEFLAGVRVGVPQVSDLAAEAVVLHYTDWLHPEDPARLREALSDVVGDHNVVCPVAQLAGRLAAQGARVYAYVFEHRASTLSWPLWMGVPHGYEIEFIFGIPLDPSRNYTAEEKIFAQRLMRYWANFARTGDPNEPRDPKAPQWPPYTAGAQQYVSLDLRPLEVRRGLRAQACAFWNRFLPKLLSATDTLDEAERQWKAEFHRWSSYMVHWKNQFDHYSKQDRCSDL
PROCEDURE DETAILS: DRUGMATRIX: Acetylcholinesterase enzyme inhibition (substrate: acetylthiocholine)
Type: cell-based, HEK293
MEASUREMENT CONDITIONS: hek293; Not Active = under 50% inhibition at 10 µM

| COMPOUND | IC50 |
| --- | --- |
| COCCOC(=O)C1=C(C)NC(C)=C(C(=O)OC(C)C)C1c1cccc([N+](=O)[O-])c1 (stereo not drawn) | Not Active |
| O=C1CCC(N2C(=O)c3ccccc3C2=O)C(=O)N1 (stereo not drawn) [THALIDOMIDE] | Not Active |
| CCC1=C[C@@H]2CN(C1)Cc1c([nH]c3ccccc13)[C@@](C(=O)OC)(c1cc3c(cc1OC)N(C)[C@H]1[C@@](O)(C(=O)OC)[C@H](OC(C)=O)[C@]4(CC)C=CCN5CC[C@]31[C@@H]54)C2 | Not Active |

* * *

TARGET OR TEST SYSTEM: Caspase-1 (Homo sapiens);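 note: Caspase-1 enzyme inhibition assay with a peptide substrate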; note: in other assays of this panel Not Active means under 50% inhibition at 10 µM
Sequence (P29466 120-297 limits assumed): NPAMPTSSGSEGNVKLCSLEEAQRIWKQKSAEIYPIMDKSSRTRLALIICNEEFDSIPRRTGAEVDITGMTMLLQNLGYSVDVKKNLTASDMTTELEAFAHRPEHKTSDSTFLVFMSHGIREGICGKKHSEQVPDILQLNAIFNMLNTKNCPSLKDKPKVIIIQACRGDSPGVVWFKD
Sequence (P29466 317-404 limits assumed): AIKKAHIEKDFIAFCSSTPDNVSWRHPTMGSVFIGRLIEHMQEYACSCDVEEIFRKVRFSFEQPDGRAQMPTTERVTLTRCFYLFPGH
Parameters: species or system Escherichia coli
PROPERTY LABEL: IC50

Use the examples below as a reference point.
| MOLECULE | IC50 |
| --- | --- |
| O=C1CC2(CCCC2)CC(=O)N1CCCCN1CCN(c2ncccn2)CC1 | Not Active |
| CC(=O)Nc1c(I)c(NC(C)=O)c(I)c(C(=O)O)c1I | Not Active |
| Cc1cc(=O)n(-c2ccccc2)n1C [ANTIPYRINE] | Not Active |
| CC[C@@H](CO)NCCN[C@@H](CC)CO | Not Active |

Please examine the following record next.
Ask: Tell me the measured IC50 of C[N+](C)(C)CCO.[Cl-] [CHOLINE CHLORIDE] , please.
Result: Not Active

* * *

TARGET OR TEST SYSTEM: Neuropeptide Y receptor type 1 (Homo sapiens, UniProt P25929); note: in other assays of this panel Not Active means under 50% inhibition at 10 µM
Sequence (P25929 whole entry): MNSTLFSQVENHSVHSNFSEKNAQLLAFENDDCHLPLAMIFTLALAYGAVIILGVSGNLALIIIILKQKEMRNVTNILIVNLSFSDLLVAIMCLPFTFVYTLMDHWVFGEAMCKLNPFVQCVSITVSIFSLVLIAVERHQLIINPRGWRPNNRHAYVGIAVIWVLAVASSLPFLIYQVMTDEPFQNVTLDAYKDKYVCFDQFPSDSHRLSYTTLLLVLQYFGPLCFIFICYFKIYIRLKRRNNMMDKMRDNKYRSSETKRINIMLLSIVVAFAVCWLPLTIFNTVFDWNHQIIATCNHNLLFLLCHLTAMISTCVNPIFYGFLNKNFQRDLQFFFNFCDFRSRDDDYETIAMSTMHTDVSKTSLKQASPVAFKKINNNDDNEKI
Type: cell membranes, Membrane
MEASUREMENT CONDITIONS: sk-n-mc
PROPERTY LABEL: IC50

| MOLECULE | IC50 |
| --- | --- |
| CC(=O)CC(c1ccccc1)c1c(O)c2ccccc2oc1=O (configuration not stated) | Not Active |
| CCN1CC(CCN2CCOCC2)C(c2ccccc2)(c2ccccc2)C1=O (configuration not stated) | Not Active |
| CC(C)(Oc1ccc(C2CCCc3ccccc32)cc1)C(=O)O (configuration not stated) | Not Active |
| COc1cccc2c1C(=O)c1c(O)c3c(c(O)c1C2=O)C[C@@](O)(C(=O)CO)C[C@@H]3O[C@H]1C[C@H](N)[C@@H](O)[C@H](C)O1 [EPIRUBICIN] | Not Active |
| COP(=O)(OC)OC=C(Cl)Cl | Not Active |
| C[C@]12CC[C@@H]3c4ccc(OC(=O)c5ccccc5)cc4CC[C@H]3[C@@H]1CC[C@@H]2O [ESTRADIOL BENZOATE] | Not Active |

Please examine the following record next.
Ask: Tell me the measured IC50 of [H]/N=C(/N)N[C@H]1[C@H](O)[C@@H](O)[C@H](O[C@@H]2O[C@@H](C)[C@](O)(C=O)[C@H]2O[C@@H]2O[C@@H](CO)[C@H](O)[C@@H](O)[C@@H]2NC)[C@@H](N/C(N)=N\[H])[C@@H]1O , please.
Result: Not Active

* * *

PROCEDURE DETAILS: DRUGMATRIX: Atrial Natriuretic Factor (ANF) radioligand binding (ligand: [125I] ANF (rat))
Type: cell membranes, Cavia porcellus, Dunkin-Hartley, Adrenal gland, Membrane
MEASUREMENT CONDITIONS: Not Active = under 50% inhibition at 10 µM
PROPERTY LABEL: IC50

Use the examples below as a reference point.
| COMPOUND | IC50 |
| --- | --- |
| O=C1CCC(N2C(=O)c3ccccc3C2=O)C(=O)N1 (stereo unspecified) [THALIDOMIDE] | Not Active |
| CC(C)(C(=O)c1cccnc1)c1cccnc1 [METYRAPONE] | Not Active |
| CO[C@H]1/C=C/O[C@@]2(C)Oc3c(C)c(O)c4c(c3C2=O)C2=NC3(CCN(CC(C)C)CC3)NC2=C(NC(=O)/C(C)=C\C=C\[C@H](C)[C@H](O)[C@@H](C)[C@@H](O)[C@@H](C)[C@H](OC(C)=O)[C@@H]1C)C4=O [RIFABUTIN] | Not Active |
| C/C=C/C[C@@H](C)[C@@H](O)[C@H]1C(=O)N[C@@H](CC)C(=O)N(C)CC(=O)N(C)[C@@H](CC(C)C)C(=O)N[C@@H](C(C)C)C(=O)N(C)[C@@H](CC(C)C)C(=O)N[C@@H](C)C(=O)N[C@H](C)C(=O)N(C)[C@@H](CC(C)C)C(=O)N(C)[C@@H](CC(C)C)C(=O)N(C)[C@@H](C(C)C)C(=O)N1C [CYCLOSPORINE] | Not Active |
| CNC(=C[N+](=O)[O-])NCCSCc1ccc(CN(C)C)o1 [RANITIDINE] | Not Active |

Please examine the following record next.
Ask: Tell me the measured IC50 of O=C1CC[C@H](N2C(=O)c3ccccc3C2=O)C(=O)N1 , please.
Result: Not Active
